# Test protocol: Reducing activity of the stable radical DPPH
# Run conditions: 100 μM compound, after 20 min
Value kind: RA% @ 100μΜ (reducing activity, DPPH) (%)
Give the number; % is assumed, so skip it.

## Input Suppose we examine the compound Cc1cc(=O)oc2cc(OCC3=NOC(Cn4cnc5c(N6CCCCC6)ncnc54)C3)ccc12 (centres unmarked) [11d] ; what RA% @ 100μΜ (reducing activity, DPPH) value has been reported?
## Output 13

## Input What does the data say about its RA% @ 100μΜ (reducing activity, DPPH)? Entry: CC(Cc1ccc(O)c(O)c1)C(C)Cc1ccc(O)c(O)c1 (centres unmarked) [NDGA, nordihydroguairetic acid, reference compound]
## Output 87

## Input What does the record list as RA% @ 100μΜ (reducing activity, DPPH) for O=c1ccc2ccc(OCC3=NOC(n4cnc5c(N6CCCCC6)ncnc54)C3)cc2o1 (centres unmarked) [18a] ?
## Output 4

## Input RA% @ 100μΜ (reducing activity, DPPH) lookup needed for O=c1ccc2ccc(OCC3=NOC(n4cnc5c(N6CCOCC6)ncnc54)C3)cc2o1 (centres unmarked) [18b] , thanks.
## Output 1
